The measured values listed here are drawn from patent US20070191336A1.

Target Or Test System: phospho p-38 alpha kinase (Homo sapiens, UniProt Q16539)
Construct: purchased Panvera
Sequence (Q16539 whole entry): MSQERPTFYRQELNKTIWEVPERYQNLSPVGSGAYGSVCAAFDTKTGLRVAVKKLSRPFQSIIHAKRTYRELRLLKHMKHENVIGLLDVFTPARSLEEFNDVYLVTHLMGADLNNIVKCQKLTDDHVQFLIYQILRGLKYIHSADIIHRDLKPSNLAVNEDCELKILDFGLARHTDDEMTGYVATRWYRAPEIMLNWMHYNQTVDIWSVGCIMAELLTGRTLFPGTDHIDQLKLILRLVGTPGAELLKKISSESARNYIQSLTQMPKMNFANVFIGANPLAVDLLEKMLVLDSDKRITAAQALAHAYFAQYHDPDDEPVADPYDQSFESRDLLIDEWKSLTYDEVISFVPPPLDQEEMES
Test: P-38 alpha kinase assay (spectrophotometric, pyruvate kinase/lactate dehydrogenase coupled)
Type: biochemical
Assay Setup: read-out: % Inhibition @ concentration, Table 3; at 0.1 uM
Measurement Type: inhibition at 0.1 µM (%)

Compound Smiles	Measurement Type	Readout Value
COc1ccc(-n2nc(C(C)(C)C)cc2NC(=O)Nc2cccc(Cl)c2)cc1	inhibition at 0.1 µM	39
CCOC(=O)c1cccc(-n2nc(C(C)(C)C)cc2NC(=O)Nc2ccc3c(c2)OCO3)c1	inhibition at 0.1 µM	3
COc1ccc(-n2nc(C(C)(C)C)cc2NC(=O)Nc2cccc(C(F)(F)F)c2)cc1	inhibition at 0.1 µM	8
CC(C)(C)c1cc(NC(=O)Nc2cccc(Cl)c2Cl)n(-c2cccc(C(N)=O)c2)n1	inhibition at 0.1 µM	75
CC(C)c1cc(NC(=O)Nc2cccc3ccccc23)n(-c2cccc(C(C)(C)O)c2)n1	inhibition at 0.1 µM	16
COc1ccc(-n2nc(C(C)(C)C)cc2NC(=O)Nc2cccc(F)c2F)cc1	inhibition at 0.1 µM	28
COc1ccc(-n2nc(C(C)(C)C)cc2NC(=O)Nc2ccccc2F)cc1	inhibition at 0.1 µM	19
CC(C)(C)c1cc(NC(=O)Nc2ccc(Cl)cc2)n(-c2ccc(OCC(=O)O)cc2)n1	inhibition at 0.1 µM	25
CCOC(=O)CCc1cccc(-n2nc(C(C)C)cc2NC(=O)Nc2ccc(Cl)cc2)c1	inhibition at 0.1 µM	67
CCOC(=O)Cc1cccc(-n2nc(C(C)(C)C)cc2NC(=O)Nc2ccc3c(c2)OCO3)c1	inhibition at 0.1 µM	21
CC(C)(C)c1cc(NC(=O)Nc2ccc(Cl)cc2)n(-c2cccc(CN)c2)n1	inhibition at 0.1 µM	24
COc1ccc(-n2nc(C(C)(C)C)cc2NC(=O)Nc2cccc(OC)c2)cc1	inhibition at 0.1 µM	17
CC(C)(C)c1cc(NC(=O)Nc2cccc(Cl)c2Cl)n(-c2cccc(Cn3c(=O)[nH]n(-c4ccccc4)c3=O)c2)n1	inhibition at 0.1 µM	78
CC(C)(C)c1cc(NC(=O)Nc2ccc3c(c2)OCO3)n(-c2cccc(CCN)c2)n1	inhibition at 0.1 µM	-11

====

Target Or Test System: phospho p-38 alpha kinase (Homo sapiens)
Construct: purchased Panvera
Test: P-38 alpha kinase assay (spectrophotometric, pyruvate kinase/lactate dehydrogenase coupled)
Format: biochemical
Assay Setup: Table 2; rates from […] to 2 h time frame
Measured IC50 values are reported for all entries that follow.

Molecule	U	IC50
CC(C)(C)c1cc(NC(=O)Nc2cccc3ccccc23)n(-c2ccc(CN)cc2)n1 [Example 45]	nM	480
CC1(C(=O)O)CC2(C)CC(C)(C1)C(=O)N(Cc1cccc(-n3nc(C(C)(C)C)cc3NC(=O)Nc3cccc4ccccc34)c1)C2=O (stereo not shown) [Example 11]	nM	953
CC(C)(C)c1cc(NC(=O)Nc2cccc3ccccc23)n(-c2cccc(CC(=O)N3CCOCC3)c2)n1 [Example 21]	nM	171
CC(C)(C)c1cc(NC(=O)Nc2ccc(Cl)cc2)n(-c2cccc(CO)c2)n1 [Example F]	nM	437

====

Target Or Test System: phospho p-38 alpha kinase (Homo sapiens, UniProt Q16539)
Construct: purchased Panvera
Test: P-38 alpha kinase assay (spectrophotometric, pyruvate kinase/lactate dehydrogenase coupled)
Format: biochemical
Assay Setup: read-out: % Inhibition @ concentration, Table 3; at 10 uM

Compound	inhibition at 10 µM
COc1cccc(-n2nc(C)cc2NC(=O)Nc2cccc(Cl)c2Cl)c1 [Example 340]	31%
CC(C)(C)c1cc(NC(=O)Nc2ccc(F)cc2)n(-c2cccc(CCC(=O)O)c2)n1 [Example 146]	9%
CC(C)(C)c1cc(NC(=O)c2ccc3ccccc3c2)n(-c2cccc(CCC(=O)O)c2)n1 [Example 155]	58%
CCOC(=O)CCc1cccc(-n2nc(C(F)(F)F)cc2NC(=O)Nc2ccc(Cl)cc2)c1 [Example 529]	40%
